Form field: composite z-score (one value per entry).
test: probe aLefty2 binding to arrayed compounds – biochemical, biotinylated probe, 635/667 nm fluorescence, primary screen (AID 1094); conditions: small-molecule microarray, higher = more signal;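 note: score merges spot fluorescence near 667 nm with spot signal-to-noise ratio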
// no unit, no text: just the number

Enquiry: # query: composite z-score of entry `CC(C)N1C(=O)c2ccccc2[C@@H](C(=O)NCCN2CCOCC2)[C@@H]1c1ccc(CO)cc1`
Return: -0.0613

Enquiry: # query: composite z-score of entry `COc1ccc([Si](C)(C)[C@@H]2[C@@H](CCO)O[C@]3(C(=O)N(Cc4cccc(NC(=O)[C@H](C)O)c4)c4ccccc43)[C@H]2C)cc1`
Return: -0.159

Enquiry: # query: composite z-score of entry `O=C(c1ccccc1)N1C(=O)[C@]2(Cc3ccccc31)N=C(c1ccc(OCCCO)cc1)O[C@@H]2c1ccccc1`
Return: -0.0059

Enquiry: # query: composite z-score of entry CS(=O)(=O)CCOC(=O)C1=CC(c2ccc(CO)cc2)=CC(C2CC2)N(Cc2sc3ccccc3c2Cl)C=C1C(=O)OCCS(C)(=O)=O (centres undefined)
Return: 0.106

---

Form field: z-score (one value per entry).
target: Homeobox protein Hox-A13 (Mus musculus); test: disruptors of Hoxa13 oligonucleotide interaction – biochemical, fluorescence polarization, labeled oligonucleotide, primary screen (AID 1185); details: Hoxa13:DNA binding, 15 min, higher = more signal, called active from +8 up or from −8 down
// no unit, no text: just the number

[[record]]
molecule = "NCCCCCCNC(=O)[C@@H]1C[C@@H]2C(=O)N[C@@H](CCCCN)C(=O)N2[C@@H]1c1ccc(O)cc1"
value_reported = -1.72

[[record]]
molecule = "COC(=O)[C@@]1(Cc2ccc(OC)cc2)[C@H]2c3cc(C(=O)N(C)C)n(Cc4ccc(C)o4)c3C[C@H]2CN1C(=O)c1ccccc1"
value_reported = -4.5

[[record]]
molecule = "CCCC=C(CCC)[C@@H](NC(=O)c1cccs1)c1ccc(C(=O)OC)cc1"
value_reported = -0.907

[[record]]
molecule = "CN1C2C=C(CCCO)C(C3C(=O)N(C(N)=O)C(=O)C32)C1C1CC1 (stereo not drawn)"
value_reported = -7.09

[[record]]
molecule = "CC(C)NC(=O)[C@@]1(C)c2ccccc2C(=O)N(Cc2ccc(OC(F)(F)F)cc2)[C@H]1c1ccc(CO)cc1"
value_reported = -3.07

[[record]]
molecule = "COC(=O)[C@@]1(Cc2ccccc2)[C@H]2c3cc(C(=O)N(C)C)n(Cc4ccc(C)o4)c3C[C@H]2CN1C(=O)c1ccccc1"
value_reported = 0.0385

[[record]]
molecule = "COCCCNC(=O)[C@@]1(Sc2ccc(C)cc2)CC(=O)N(C2Cc3ccccc3C2)[C@@H]1c1ccc(CO)cc1"
value_reported = -3.56


Consider now this further molecule.
Enquiry: # query: z-score of entry `COC(=O)c1c(CC[C@@H](CO)NC(=O)N[C@@H](C)Cn2cc(-c3ccccn3)nn2)oc(C(C)=O)c1C(=O)OC`
Return: 0.452

---

Form field: composite z-score (one value per entry).
target: Concanavalin-A (Canavalia ensiformis) (UniProt P02866); experiment: compounds binding concanavalin A lectin – biochemical, small-molecule microarray, Alexa647 label, 635 nm, artefact control for SMM control protein annotation, primary screen (AID 1127); conditions: ConA-A647 binding fluorescence, higher = more signal;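 note: z combines 667 nm emission intensity with signal-to-noise across three replicate slides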
Sequence (P02866 whole entry, looked up): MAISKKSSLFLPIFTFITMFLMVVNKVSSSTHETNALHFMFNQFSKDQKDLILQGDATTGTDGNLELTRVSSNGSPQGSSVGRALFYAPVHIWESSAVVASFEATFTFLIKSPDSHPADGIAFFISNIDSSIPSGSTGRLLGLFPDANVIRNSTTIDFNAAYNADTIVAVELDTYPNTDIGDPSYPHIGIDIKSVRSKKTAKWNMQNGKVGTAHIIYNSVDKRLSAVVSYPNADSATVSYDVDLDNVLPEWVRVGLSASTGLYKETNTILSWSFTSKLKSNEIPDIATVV

Examples with their reported composite z-score follow.
[[record]]
compound = "Cc1ccc(NN2C(C(O)c3c(F)cccc3Cl)C=CC3C(=O)N(C4CCCCC4)C(=O)C32)cc1 (stereo not drawn)"
tested_target = "Concanavalin-A (Canavalia ensiformis) (UniProt P02866)"
value_reported = 1.19

[[record]]
compound = "CC(C)C(CO)N1C(=O)[C@@H]2[C@H]3C(=O)OCC=C[C@H]3OC23C=CCN(c2ccc(Cl)cc2)C(=O)[C@@H]13 (stereo partly drawn)"
tested_target = "Concanavalin-A (Canavalia ensiformis) (UniProt P02866)"
value_reported = -0.842

[[record]]
compound = "O=C1C2C=CC(C(O)c3cccc(O)c3)N(Nc3ccc([N+](=O)[O-])cc3)C2C(=O)N1c1ccccc1 (stereo not drawn)"
tested_target = "Concanavalin-A (Canavalia ensiformis) (UniProt P02866)"
value_reported = 0.41

[[record]]
compound = "CCOC(=O)C[C@H]1[C@H](OC(=O)c2ccccc2-c2ccccc2)[C@@H](NC(=O)c2ccc3ccccc3n2)c2cc(OCCCO)ccc2N1C(=O)Cc1ccc(OC)cc1"
tested_target = "Concanavalin-A (Canavalia ensiformis) (UniProt P02866)"
value_reported = 0.0562

[[record]]
compound = "COC(=O)[C@@]1(Cc2ccc(F)cc2)[C@H]2c3cc(C(=O)N4CCCC4)n(CCc4c[nH]c5ccccc45)c3C[C@H]2CN1C(=O)c1ccccc1"
tested_target = "Concanavalin-A (Canavalia ensiformis) (UniProt P02866)"
value_reported = 0.984


Enquiry: # query: composite z-score of entry `CCCCNC(=O)c1ccc(C#CC(C)(C)C)c(OC(C)=O)c1`
Return: 0.744

Enquiry: # query: composite z-score of entry CCCCC(CC)C(O)C1C=CC2C(=O)N(C)C(=O)C2N1Nc1ccccc1 (stereo not drawn)
Return: 0.586

Enquiry: # query: composite z-score of entry `CCOC(=O)C=Cc1cccc(C)c1O`
Return: 0.0646
